Target: human emopamil binding protein and human 7-dehydrocholesterol reductase (hEBP-DHCR7) (Homo sapiens (Human))
Sequence (Q15125 whole entry): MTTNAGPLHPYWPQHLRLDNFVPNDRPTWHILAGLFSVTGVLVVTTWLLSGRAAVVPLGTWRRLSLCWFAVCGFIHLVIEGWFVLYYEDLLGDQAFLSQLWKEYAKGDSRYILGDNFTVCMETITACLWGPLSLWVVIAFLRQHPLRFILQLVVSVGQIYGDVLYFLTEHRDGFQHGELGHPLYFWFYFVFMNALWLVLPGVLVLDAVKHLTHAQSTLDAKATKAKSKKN
Assignment: determine reported pKi for the given molecules.
Note: pKi values are expressed as the negative base-10 logarithm of concentration in M.

Could you tell me which pKi is on file for COCCN1CCN([C@H]2CC[C@@H](c3cc(-c4ccc(C(F)(F)F)nc4)nn3C(C)C)C2)CC1 (single isomer, unassigned) ?
7.89

Could you tell me which pKi is on file for CC(C)n1nc(-c2cncc(C(F)(F)F)c2)cc1[C@H]1[C@@H]2C[C@H](N3CCCOCC3)C[C@@H]21 ?
7.70

Could you tell me which pKi is on file for CC[C@@H]1CN([C@H]2CC[C@@H](c3nc(-c4cnc(C(F)(F)F)nc4)nn3C(C)C)C2)CCO1 ?
5.47

Could you tell me which pKi is on file for CC(C)n1nc(-c2cncc(C(F)(F)F)c2)cc1[C@H]1CC[C@@H](N2CCOCC2)CC1 ?
7.41

---

Molecular target: human emopamil binding protein and human 7-dehydrocholesterol reductase (hEBP-DHCR7) (Homo sapiens (Human))
Assignment: determine reported Ki for the given compounds.
// note: answer is a bare numeric in nM

Could you tell me which Ki is on file for CC(C)n1nc(-c2cncc(C(F)(F)F)c2)cc1[C@H]1[C@@H]2C[C@@H](N3C[C@H]4C[C@@H]3CO4)C[C@@H]21 (single isomer, unassigned) ?
112

Could you tell me which Ki is on file for CC(C)n1nc(-c2cnc(C(F)(F)F)nc2)nc1[C@@H]1CC[C@H](N2CCO[C@@H](C)C2)C1 ?
3540

Could you tell me which Ki is on file for CC(C)n1nc(-c2ccc(C(F)(F)F)nc2)cc1[C@H]1CC[C@H](N2CCN(CCO)CC2)C1 (single isomer, unassigned) ?
88.2

Could you tell me which Ki is on file for CC(C)n1nc(-c2cncc(F)c2)cc1[C@H]1[C@@H]2C[C@@H](N3CCCOCC3)C[C@@H]21 ?
169

Could you tell me which Ki is on file for CC(C)n1nc(-c2cccc(C(F)(F)F)c2)nc1[C@H]1[C@@H]2C[C@@H](N3CCOC[C@H]3C)C[C@@H]21 (single isomer, unassigned) ?
29

---

Assignment: determine reported pEC50 for the given molecules.
Tested on: zymostenol accumulation (EBP) in EpiSC-derived OPCs
Experiment: GC/MS-based sterol profiling, zymostenol accumulation in EpiSC-derived OPCs
Format: cell-based, mouse
Conditions: Mus musculus, 24 h, EpiSC-derived OPCs, 24 hr, 8 doses from 0.15 nM to 333 nM; read-out: Mouse Zymostenol GCMS EC50
Note: pEC50 values are expressed as the negative base-10 logarithm of concentration in M.

Could you tell me which pEC50 is on file for CC(C)n1nc(-c2cccc(OC(F)F)c2)nc1[C@H]1[C@@H]2C[C@@H](N3CCCOCC3)C[C@@H]21 [Compound 74] ?
6.77

Could you tell me which pEC50 is on file for CC(C)n1nc(-c2cncc(OC(F)F)c2)nc1[C@H]1[C@@H]2C[C@@H](N3CCCOCC3)C[C@@H]21 [Compound 68] ?
6.84

Could you tell me which pEC50 is on file for CC(C)n1nc(-c2cncc(C(F)(F)F)c2)nc1[C@H]1[C@@H]2C[C@H](N3CCOC[C@H]3C)C[C@@H]21 [Compound 120] ?
8.90

Could you tell me which pEC50 is on file for CC(C)n1nc(-c2ccc(C(F)(F)F)nc2)cc1[C@@H]1CC[C@H](N2CCN(CCO)CC2)C1 (single isomer, unassigned) [87*] ?
7.79

Could you tell me which pEC50 is on file for CC(C)n1nc(-c2cccc(C(F)(F)F)c2)nc1[C@H]1[C@@H]2C[C@@H](N3CCOC[C@H]3C)C[C@@H]21 (single isomer, unassigned) [71*] ?
6.69

Could you tell me which pEC50 is on file for CC(C)n1nc(-c2cccc(C(F)(F)F)c2)nc1[C@H]1[C@@H]2C[C@H](N3CCOC[C@@H]3C)C[C@@H]21 [Compound 67] ?
7.18

Could you tell me which pEC50 is on file for CC(C)n1nc(-c2ccnc(C(F)(F)F)c2)cc1[C@H]1[C@@H]2C[C@H](N3CCOCC3)C[C@@H]21 [Compound 172] ?
8.40

Could you tell me which pEC50 is on file for CC(C)n1nc(-c2ccc(C(F)(F)F)nc2)nc1[C@H]1CC[C@H](N2CCCOCC2)C1 [Compound 5] ?
7.35

Could you tell me which pEC50 is on file for CC(C)n1nc(-c2cncc(C(F)(F)F)c2)cc1[C@H]1[C@@H]2C[C@@H](N3CCOCC3)C[C@@H]21 [Cmpd 202] ?
6.63

Could you tell me which pEC50 is on file for CC(C)n1nc(-c2cncc(C(F)(F)F)n2)cc1[C@H]1[C@@H]2C[C@@H](N3CCOCC3)C[C@@H]21 [Compound 107] ?
8.31

Could you tell me which pEC50 is on file for CC(C)n1nc(-c2cccc(C(F)(F)F)c2)nc1[C@H]1[C@@H]2C[C@@H](N3CCOC[C@@H]3C)C[C@@H]21 [Compound 66] ?
8.55

Could you tell me which pEC50 is on file for COCCN1CCN([C@@H]2CC[C@H](c3cc(-c4ccc(C(F)(F)F)nc4)nn3C(C)C)C2)CC1 (single isomer, unassigned) [93*] ?
7.65

Could you tell me which pEC50 is on file for CC[C@@H]1CN([C@@H]2CC[C@H](c3nc(-c4cnc(C(F)(F)F)c(F)c4)nn3C(C)C)C2)CCO1 [Compound 146] ?
9.03

Could you tell me which pEC50 is on file for COCCN1CCN([C@@H]2CC[C@@H](c3cc(-c4ccc(C(F)(F)F)nc4)nn3C(C)C)C2)CC1 (single isomer, unassigned) [90*] ?
7.47

Could you tell me which pEC50 is on file for CC(C)n1nc(-c2cccc(C(F)(F)F)c2)nc1[C@@H]1CC[C@H](N2CCOCC2)C1 (single isomer, unassigned) [22*] ?
8.88
